# Tested on: HFFs
# protocol: Cell viability assay
# Format: cell-based, human
# measurement parameters: read-out: CC50 (μM) ± s.d., 6 days, MTS assay, mean of 2–3 dose–response determinations
measure name: CC50 (µM)
Give the value, in units of µM, as a plain number.

Cc1cc(OCc2nnc(SC3CCCC3)n2-c2cccnc2)ccc1-c1ccc(S(C)(=O)=O)cc1 | 4.1

[ask] Query (molecule): Cc1cc2c(C(N)=O)cccc2n1-c1nc2c(c(NCc3ccccc3)n1)COCC2 ; field requested: CC50
[reply] 0.53

====

# protocol: in vitro
# measurement parameters: dog
measure name: viability at 0.5 µM
Phrase the answer as number then unit, nothing more needed.

[ask] Please report the recorded viability at 0.5 µM for Cc1cc(OCc2nnc(SC3CCCC3)n2-c2cccnc2)ccc1-c1ccc(S(C)(=O)=O)cc1 .
[reply] 94%
